- target-or-system: Tyrosine-protein kinase ABL1 (Homo sapiens) (UniProt P00519)
- Sequence (P00519 whole entry): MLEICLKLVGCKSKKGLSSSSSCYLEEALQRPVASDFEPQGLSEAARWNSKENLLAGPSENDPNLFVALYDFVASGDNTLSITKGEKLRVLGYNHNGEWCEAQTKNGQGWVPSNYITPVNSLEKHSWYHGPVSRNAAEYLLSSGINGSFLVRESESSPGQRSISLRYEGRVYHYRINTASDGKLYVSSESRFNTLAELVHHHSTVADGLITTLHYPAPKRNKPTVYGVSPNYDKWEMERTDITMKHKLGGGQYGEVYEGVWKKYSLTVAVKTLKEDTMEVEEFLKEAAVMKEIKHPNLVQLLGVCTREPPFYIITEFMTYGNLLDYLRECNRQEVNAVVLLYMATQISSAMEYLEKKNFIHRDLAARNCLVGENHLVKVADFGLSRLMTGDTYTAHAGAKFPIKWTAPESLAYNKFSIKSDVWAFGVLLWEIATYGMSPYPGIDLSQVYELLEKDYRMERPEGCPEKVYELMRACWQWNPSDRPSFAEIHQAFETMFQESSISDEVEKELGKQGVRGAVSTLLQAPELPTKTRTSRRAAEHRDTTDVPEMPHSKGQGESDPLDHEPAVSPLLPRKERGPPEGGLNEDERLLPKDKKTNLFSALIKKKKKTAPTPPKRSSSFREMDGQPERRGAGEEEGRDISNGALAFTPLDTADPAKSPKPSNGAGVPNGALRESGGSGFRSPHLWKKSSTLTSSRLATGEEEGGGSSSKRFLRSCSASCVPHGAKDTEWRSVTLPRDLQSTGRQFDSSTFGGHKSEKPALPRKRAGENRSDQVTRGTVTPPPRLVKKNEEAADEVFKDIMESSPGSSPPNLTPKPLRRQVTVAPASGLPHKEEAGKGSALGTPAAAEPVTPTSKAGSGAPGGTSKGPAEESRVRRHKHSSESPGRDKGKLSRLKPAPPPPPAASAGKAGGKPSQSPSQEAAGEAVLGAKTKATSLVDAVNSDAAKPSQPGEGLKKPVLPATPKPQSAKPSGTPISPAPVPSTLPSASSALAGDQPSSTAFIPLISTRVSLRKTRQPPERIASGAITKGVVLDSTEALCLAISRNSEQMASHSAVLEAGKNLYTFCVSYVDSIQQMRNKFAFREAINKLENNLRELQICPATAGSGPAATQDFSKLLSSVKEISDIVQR
- protocol-details: Inhibition of non-phosphorylated form of Abl1 (unknown origin) at 1 uM relative to control
Recorded inhibition by entry
Write it as a number; the unit % goes unstated.

Exercise: For the compound Nc1cc(Oc2ccc(NC(=O)c3cccn(-c4ccc(F)cc4F)c3=O)cc2F)ncn1 , report inhibition.
Key: 37

Exercise: For the compound Nc1cc(Oc2ccc(NC(=O)c3cccn(-c4ccc(F)cc4)c3=O)cc2F)ncn1 , report inhibition.
Key: 41

Exercise: For the compound O=C(Nc1ccc(Oc2ncnc3[nH]cnc23)c(F)c1)c1cccn(-c2ccc(F)cc2)c1=O , report inhibition.
Key: 32

* * *

- target-or-system: Hepatocyte growth factor receptor (Homo sapiens)
- protocol-details: Inhibition of Met (unknown origin) at 75 uM relative to control
reported-metric: inhibition
Write the numeric value and follow it with the unit.

Solved entries:
Nc1cc(Oc2ccc(NC(=O)c3cccn(-c4ccc(F)cc4)c3=O)cc2)ncn1: 97%
O=C(Nc1ccc(Oc2cc(NCCN3CCOCC3)ncn2)c(F)c1)c1cccn(-c2ccc(F)cc2)c1=O: 99%
Nc1cc(Oc2ccc(NC(=O)c3cccn(-c4ccc(F)cc4)c3=O)cc2F)ncn1: 98%
Nc1cc(Oc2ccc(NC(=O)c3cccn(-c4ccc(F)cc4F)c3=O)cc2F)ncn1: 99%
Cc1cc(F)ccc1-n1cccc(C(=O)Nc2ccc(Oc3cc(N)ncn3)c(F)c2)c1=O: 99%
Nc1nccc(Oc2ccc(NC(=O)c3cccn(-c4ccc(F)cc4)c3=O)cc2F)n1: 99%

API: the following record is the query input.
Exercise: For the compound O=C(Nc1ccc(Oc2ncnc3[nH]cnc23)c(F)c1)c1cccn(-c2ccc(F)cc2)c1=O , report inhibition.
Key: 95%

* * *

- target-or-system: Tyrosine-protein kinase Mer (Homo sapiens) (UniProt Q12866)
- Sequence (Q12866 whole entry): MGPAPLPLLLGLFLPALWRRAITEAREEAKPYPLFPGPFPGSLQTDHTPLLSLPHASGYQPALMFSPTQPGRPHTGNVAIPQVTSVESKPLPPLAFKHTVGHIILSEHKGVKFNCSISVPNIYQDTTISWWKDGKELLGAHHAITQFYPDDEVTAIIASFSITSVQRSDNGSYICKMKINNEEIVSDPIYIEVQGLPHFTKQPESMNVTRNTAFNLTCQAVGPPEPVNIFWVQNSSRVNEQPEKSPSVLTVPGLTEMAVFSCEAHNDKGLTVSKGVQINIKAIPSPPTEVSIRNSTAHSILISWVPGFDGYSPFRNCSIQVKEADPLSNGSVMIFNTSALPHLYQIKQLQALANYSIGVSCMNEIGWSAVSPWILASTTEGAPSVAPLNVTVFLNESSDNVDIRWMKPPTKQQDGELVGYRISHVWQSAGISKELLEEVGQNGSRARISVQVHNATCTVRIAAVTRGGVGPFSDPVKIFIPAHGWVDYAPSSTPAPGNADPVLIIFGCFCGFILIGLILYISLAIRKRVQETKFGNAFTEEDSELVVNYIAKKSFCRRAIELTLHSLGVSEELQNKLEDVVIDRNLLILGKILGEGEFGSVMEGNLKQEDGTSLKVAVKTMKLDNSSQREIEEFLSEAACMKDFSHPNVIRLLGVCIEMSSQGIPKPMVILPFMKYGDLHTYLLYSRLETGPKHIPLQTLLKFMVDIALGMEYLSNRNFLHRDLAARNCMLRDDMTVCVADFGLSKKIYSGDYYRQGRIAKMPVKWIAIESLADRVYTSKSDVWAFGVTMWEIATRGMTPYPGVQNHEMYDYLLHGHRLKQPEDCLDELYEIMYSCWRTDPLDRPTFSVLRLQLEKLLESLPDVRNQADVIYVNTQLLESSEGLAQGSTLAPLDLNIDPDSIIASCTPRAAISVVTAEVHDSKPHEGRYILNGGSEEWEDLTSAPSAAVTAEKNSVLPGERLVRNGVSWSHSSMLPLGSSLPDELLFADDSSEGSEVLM
- protocol-details: Inhibition of Mer (unknown origin) at 1 uM relative to control
Recorded inhibition by entry
Write it as a number; the unit % goes unstated.

Solved entries:
Nc1cc(Oc2ccc(NC(=O)c3cccn(-c4ccc(F)cc4)c3=O)cc2F)ncn1: 93
O=C(Nc1ccc(Oc2cc(NCCN3CCOCC3)ncn2)c(F)c1)c1cccn(-c2ccc(F)cc2)c1=O: 93
Nc1cc(Oc2ccc(NC(=O)c3cccn(-c4ccc(F)cc4)c3=O)cc2)ncn1: 82
O=C(Nc1ccc(Oc2ncnc3[nH]cnc23)c(F)c1)c1cccn(-c2ccc(F)cc2)c1=O: 93
Nc1nccc(Oc2ccc(NC(=O)c3cccn(-c4ccc(F)cc4)c3=O)cc2F)n1: 95

Exercise: For the compound Cc1cc(F)ccc1-n1cccc(C(=O)Nc2ccc(Oc3cc(N)ncn3)c(F)c2)c1=O , report inhibition.
Key: 65

Exercise: For the compound CCOc1ccn(-c2ccc(F)cc2)c(=O)c1C(=O)Nc1ccc(Oc2ccnc(N)c2Cl)c(F)c1 , report inhibition.
Key: 98

Exercise: For the compound Nc1cc(Oc2ccc(NC(=O)c3cccn(-c4ccc(F)cc4F)c3=O)cc2F)ncn1 , report inhibition.
Key: 71

* * *

- target-or-system: Fibroblast growth factor receptor 3 (Homo sapiens)
- protocol-details: Inhibition of FGFR3 (unknown origin) at 75 uM relative to control
reported-metric: inhibition (%)
Write it as a number; the unit % goes unstated.

O=C(Nc1ccc(Oc2cc(NCCN3CCOCC3)ncn2)c(F)c1)c1cccn(-c2ccc(F)cc2)c1=O: 0
O=C(Nc1ccc(Oc2ncnc3[nH]cnc23)c(F)c1)c1cccn(-c2ccc(F)cc2)c1=O: 16

API: the following record is the query input.
Exercise: For the molecule Nc1cc(Oc2ccc(NC(=O)c3cccn(-c4ccc(F)cc4)c3=O)cc2)ncn1 , report inhibition.
Key: 3

* * *

- target-or-system: Tyrosine-protein kinase receptor UFO (Homo sapiens) (UniProt P30530)
- Sequence (P30530 whole entry): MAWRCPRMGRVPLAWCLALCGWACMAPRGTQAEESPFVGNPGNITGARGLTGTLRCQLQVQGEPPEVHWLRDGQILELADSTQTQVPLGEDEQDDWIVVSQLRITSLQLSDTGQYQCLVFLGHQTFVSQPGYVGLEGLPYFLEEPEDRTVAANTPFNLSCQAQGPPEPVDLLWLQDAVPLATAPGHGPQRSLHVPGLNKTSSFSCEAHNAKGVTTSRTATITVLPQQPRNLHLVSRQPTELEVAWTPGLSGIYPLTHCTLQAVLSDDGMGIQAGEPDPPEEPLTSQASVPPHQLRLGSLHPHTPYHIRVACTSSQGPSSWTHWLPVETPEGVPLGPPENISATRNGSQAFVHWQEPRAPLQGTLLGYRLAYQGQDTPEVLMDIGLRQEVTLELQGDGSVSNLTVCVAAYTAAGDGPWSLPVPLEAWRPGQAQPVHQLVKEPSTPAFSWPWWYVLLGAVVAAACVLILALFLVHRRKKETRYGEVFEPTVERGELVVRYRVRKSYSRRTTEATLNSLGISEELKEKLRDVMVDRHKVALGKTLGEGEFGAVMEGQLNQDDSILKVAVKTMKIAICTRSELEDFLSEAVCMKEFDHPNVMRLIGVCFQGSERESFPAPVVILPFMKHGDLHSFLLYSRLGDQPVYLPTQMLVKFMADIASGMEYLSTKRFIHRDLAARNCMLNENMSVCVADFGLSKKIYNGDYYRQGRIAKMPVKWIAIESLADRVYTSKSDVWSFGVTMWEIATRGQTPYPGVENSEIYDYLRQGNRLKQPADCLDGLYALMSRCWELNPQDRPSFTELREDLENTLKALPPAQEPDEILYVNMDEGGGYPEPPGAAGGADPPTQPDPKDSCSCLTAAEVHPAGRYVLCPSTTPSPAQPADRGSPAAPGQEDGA
- protocol-details: Inhibition of Axl (unknown origin) at 75 uM relative to control
reported-metric: inhibition
Write the numeric value and follow it with the unit.

Exercise: For the compound Nc1cc(Oc2ccc(NC(=O)c3cccn(-c4ccc(F)cc4)c3=O)cc2)ncn1 , report inhibition.
Key: 100%

Exercise: For the compound Nc1cc(Oc2ccc(NC(=O)c3cccn(-c4ccc(F)cc4)c3=O)cc2F)ncn1 , report inhibition.
Key: 100%

* * *

Recorded inhibition by entry
- target-or-system: UniProt:P22607
- Sequence (P22607 23-806 limits assumed): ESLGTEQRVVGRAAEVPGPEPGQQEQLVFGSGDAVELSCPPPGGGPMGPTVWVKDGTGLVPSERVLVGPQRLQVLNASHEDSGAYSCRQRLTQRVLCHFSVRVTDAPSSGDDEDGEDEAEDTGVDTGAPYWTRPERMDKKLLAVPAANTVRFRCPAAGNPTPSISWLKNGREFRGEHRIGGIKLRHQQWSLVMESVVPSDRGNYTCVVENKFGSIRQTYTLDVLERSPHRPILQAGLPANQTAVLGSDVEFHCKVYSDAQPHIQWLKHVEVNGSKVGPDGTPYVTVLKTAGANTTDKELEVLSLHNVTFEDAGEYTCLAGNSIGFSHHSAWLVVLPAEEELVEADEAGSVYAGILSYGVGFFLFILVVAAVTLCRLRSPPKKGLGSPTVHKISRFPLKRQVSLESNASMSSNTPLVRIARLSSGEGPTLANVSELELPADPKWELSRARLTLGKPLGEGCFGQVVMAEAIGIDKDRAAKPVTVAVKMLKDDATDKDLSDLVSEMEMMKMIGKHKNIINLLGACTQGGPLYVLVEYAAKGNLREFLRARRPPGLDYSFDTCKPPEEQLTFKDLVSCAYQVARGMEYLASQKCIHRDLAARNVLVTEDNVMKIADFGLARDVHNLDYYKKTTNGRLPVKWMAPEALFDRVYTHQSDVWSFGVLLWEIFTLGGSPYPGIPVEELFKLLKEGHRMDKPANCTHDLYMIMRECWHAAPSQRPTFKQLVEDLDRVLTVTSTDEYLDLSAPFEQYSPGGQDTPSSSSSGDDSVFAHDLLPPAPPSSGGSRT
- protocol-details: Inhibition of FGFR3 (unknown origin) at 75 uM relative to control
Write it as a number; the unit % goes unstated.

CCOc1ccn(-c2ccc(F)cc2)c(=O)c1C(=O)Nc1ccc(Oc2ccnc(N)c2Cl)c(F)c1: 0
Nc1cc(Oc2ccc(NC(=O)c3cccn(-c4ccc(F)cc4F)c3=O)cc2F)ncn1: 9
Nc1nccc(Oc2ccc(NC(=O)c3cccn(-c4ccc(F)cc4)c3=O)cc2F)n1: 12
Cc1cc(F)ccc1-n1cccc(C(=O)Nc2ccc(Oc3cc(N)ncn3)c(F)c2)c1=O: 6

Exercise: For the molecule Nc1cc(Oc2ccc(NC(=O)c3cccn(-c4ccc(F)cc4)c3=O)cc2F)ncn1 , report inhibition.
Key: 16

* * *

- target-or-system: Tyrosine-protein kinase ABL1 (Homo sapiens) (UniProt P00519)
- protocol-details: Inhibition of phosphorylated form of Abl1 (unknown origin) at 75 uM relative to control
Recorded inhibition by entry
Write it as a number; the unit % goes unstated.

Solved entries:
Nc1cc(Oc2ccc(NC(=O)c3cccn(-c4ccc(F)cc4)c3=O)cc2F)ncn1: 39
Nc1nccc(Oc2ccc(NC(=O)c3cccn(-c4ccc(F)cc4)c3=O)cc2F)n1: 30
O=C(Nc1ccc(Oc2ncnc3[nH]cnc23)c(F)c1)c1cccn(-c2ccc(F)cc2)c1=O: 20
Nc1cc(Oc2ccc(NC(=O)c3cccn(-c4ccc(F)cc4)c3=O)cc2)ncn1: 26
O=C(Nc1ccc(Oc2cc(NCCN3CCOCC3)ncn2)c(F)c1)c1cccn(-c2ccc(F)cc2)c1=O: 13

Exercise: For the compound Nc1cc(Oc2ccc(NC(=O)c3cccn(-c4ccc(F)cc4F)c3=O)cc2F)ncn1 , report inhibition.
Key: 21

Exercise: For the compound Cc1cc(F)ccc1-n1cccc(C(=O)Nc2ccc(Oc3cc(N)ncn3)c(F)c2)c1=O , report inhibition.
Key: 47

* * *

Recorded inhibition by entry
- target-or-system: Tyrosine-protein kinase receptor TYRO3 (Homo sapiens)
- protocol-details: Inhibition of recombinant human Tyro3 kinase domain using poly (Glu, Ala, Tyr) as substrate at 75 uM after 1.5 hrs by ELISA relative to control
Write it as a number; the unit % goes unstated.

Solved entries:
CCOc1ccn(-c2ccc(F)cc2)c(=O)c1C(=O)Nc1ccc(Oc2ccnc(N)c2Cl)c(F)c1: 92
Cc1cc(F)ccc1-n1cccc(C(=O)Nc2ccc(Oc3cc(N)ncn3)c(F)c2)c1=O: 100
O=C(Nc1ccc(Oc2ncnc3[nH]cnc23)c(F)c1)c1cccn(-c2ccc(F)cc2)c1=O: 100
O=C(Nc1ccc(Oc2cc(NCCN3CCOCC3)ncn2)c(F)c1)c1cccn(-c2ccc(F)cc2)c1=O: 75

Exercise: For the compound Nc1cc(Oc2ccc(NC(=O)c3cccn(-c4ccc(F)cc4)c3=O)cc2)ncn1 , report inhibition.
Key: 81

Exercise: For the compound Nc1cc(Oc2ccc(NC(=O)c3cccn(-c4ccc(F)cc4)c3=O)cc2F)ncn1 , report inhibition.
Key: 100

Exercise: For the compound Nc1cc(Oc2ccc(NC(=O)c3cccn(-c4ccc(F)cc4F)c3=O)cc2F)ncn1 , report inhibition.
Key: 100

* * *

Recorded inhibition by entry
- target-or-system: Tyrosine-protein kinase ABL1 (Homo sapiens) (UniProt P00519)
- protocol-details: Inhibition of non-phosphorylated form of Abl1 (unknown origin) at 1 uM relative to control
Write it as a number; the unit % goes unstated.

Exercise: For the molecule O=C(Nc1ccc(Oc2cc(NCCN3CCOCC3)ncn2)c(F)c1)c1cccn(-c2ccc(F)cc2)c1=O , report inhibition.
Key: 12

Exercise: For the molecule Nc1cc(Oc2ccc(NC(=O)c3cccn(-c4ccc(F)cc4)c3=O)cc2)ncn1 , report inhibition.
Key: 31

Exercise: For the molecule Cc1cc(F)ccc1-n1cccc(C(=O)Nc2ccc(Oc3cc(N)ncn3)c(F)c2)c1=O , report inhibition.
Key: 27

Exercise: For the molecule CCOc1ccn(-c2ccc(F)cc2)c(=O)c1C(=O)Nc1ccc(Oc2ccnc(N)c2Cl)c(F)c1 , report inhibition.
Key: 98

Exercise: For the molecule Nc1nccc(Oc2ccc(NC(=O)c3cccn(-c4ccc(F)cc4)c3=O)cc2F)n1 , report inhibition.
Key: 50

* * *

- target-or-system: Tyrosine-protein kinase ABL1 (Homo sapiens)
- protocol-details: Inhibition of phosphorylated form of Abl1 (unknown origin) at 0.5 uM relative to control
Recorded inhibition by entry
Write it as a number; the unit % goes unstated.

Solved entries:
Nc1nccc(Oc2ccc(NC(=O)c3cccn(-c4ccc(F)cc4)c3=O)cc2F)n1: 0
Nc1cc(Oc2ccc(NC(=O)c3cccn(-c4ccc(F)cc4F)c3=O)cc2F)ncn1: 8
O=C(Nc1ccc(Oc2ncnc3[nH]cnc23)c(F)c1)c1cccn(-c2ccc(F)cc2)c1=O: 0
Nc1cc(Oc2ccc(NC(=O)c3cccn(-c4ccc(F)cc4)c3=O)cc2F)ncn1: 0
O=C(Nc1ccc(Oc2cc(NCCN3CCOCC3)ncn2)c(F)c1)c1cccn(-c2ccc(F)cc2)c1=O: 1
Cc1cc(F)ccc1-n1cccc(C(=O)Nc2ccc(Oc3cc(N)ncn3)c(F)c2)c1=O: 0

API: the following record is the query input.
Exercise: For the compound Nc1cc(Oc2ccc(NC(=O)c3cccn(-c4ccc(F)cc4)c3=O)cc2)ncn1 , report inhibition.
Key: 0
